- Experimental Details: Orientation preference, ratio of change in melting temperature of forward binding site of 5'-ATmCGGAT-3' DNA (unknown origin) to sum of change in melting temperature of forward binding site and change in melting temperature of reverse binding site for 5'-ATmCGGAT-3' DNA (unknown origin)
Reported Property: Ratio

Answered cases to consult:
[
  {
    "Smiles Repr": "CC(=O)Nc1cc(C(=O)NCCC(=O)Nc2cn(C)c(C(=O)Nc3cc(C(=O)NCCCC(=O)Nc4cc(C(=O)NCCC(=O)Nc5cn(C)c(C(=O)Nc6cn(C)c(C(=O)NCCC(=O)NCCCN(C)C)n6)n5)n(C)c4)n(C)c3)n2)n(C)c1",
    "Ratio": 0.42
  },
  {
    "Smiles Repr": "CC(=O)Nc1cc(C(=O)Nc2cn(C)c(C(=O)NCCC(=O)Nc3cc(C(=O)NCC[C@H](N)C(=O)Nc4cn(C)c(C(=O)Nc5cn(C)c(C(=O)NCCC(=O)Nc6cc(C(=O)NCCC(=O)NCCCN(C)C)n(C)c6)n5)n4)n(C)c3)n2)n(C)c1",
    "Ratio": 0.39
  }
]

Query block: State its Ratio: CC(=O)Nc1cc(C(=O)Nc2cn(C)c(C(=O)NCCC(=O)Nc3cc(C(=O)NCCCC(=O)Nc4cn(C)c(C(=O)Nc5cn(C)c(C(=O)NCCC(=O)Nc6cc(C(=O)NCCC(=O)NCCCN(C)C)n(C)c6)n5)n4)n(C)c3)n2)n(C)c1
Result block: 0.32
